ASSAYED SYSTEM: fMet-Leu-Phe receptor (Homo sapiens, UniProt P21462)
Sequence (P21462 whole entry): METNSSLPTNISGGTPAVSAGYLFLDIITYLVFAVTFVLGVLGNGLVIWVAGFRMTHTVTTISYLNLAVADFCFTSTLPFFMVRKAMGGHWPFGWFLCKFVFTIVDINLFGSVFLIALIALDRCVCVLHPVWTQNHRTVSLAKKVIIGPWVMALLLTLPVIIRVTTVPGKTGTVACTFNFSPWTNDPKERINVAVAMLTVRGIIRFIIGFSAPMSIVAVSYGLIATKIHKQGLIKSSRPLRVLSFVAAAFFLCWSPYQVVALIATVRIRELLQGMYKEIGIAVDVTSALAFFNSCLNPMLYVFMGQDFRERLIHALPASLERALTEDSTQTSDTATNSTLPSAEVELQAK
# IC50 values compiled below
ASSAY METRIC: IC50 (µM)

# COMPOUND, ASSAYED SYSTEM, ENDPOINT UNIT, MODIFIER, RECORDED VALUE
records = [
    ("O=C1C(=O)N(Cc2ccccc2)C(c2ccco2)C1C(=O)c1ccco1 (centres undefined)", "fMet-Leu-Phe receptor (Homo sapiens, UniProt P21462)", "µM", "=", 12.4),
    ("COc1ccc(C2C(C(=O)c3cccs3)C(=O)C(=O)N2c2nnc(C)s2)cc1OC (centres undefined)", "fMet-Leu-Phe receptor (Homo sapiens, UniProt P21462)", "µM", ">", 66.7),
    ("CC1Cc2cc(C(=O)C3C(=O)C(=O)N(CCN4CCOCC4)C3c3ccccc3F)ccc2O1 (centres undefined)", "fMet-Leu-Phe receptor (Homo sapiens, UniProt P21462)", "µM", ">", 66.7),
    ("COc1ccc(CCN2C(=O)C(=O)C(C(=O)c3ccco3)C2c2cccs2)cc1OC (centres undefined)", "fMet-Leu-Phe receptor (Homo sapiens, UniProt P21462)", "µM", "=", 19),
    ("C=CCN1C(=O)C2(c3ccccc31)C(C(=O)c1ccc3c(c1)OCCO3)C(=O)C(=O)N2CCCOC (centres undefined)", "fMet-Leu-Phe receptor (Homo sapiens, UniProt P21462)", "µM", ">", 66.7),
    ("O=c1c(C23CC4CC(CC(C4)C2)C3)c(O)n(-c2ccccc2)n1-c1ccccc1", "fMet-Leu-Phe receptor (Homo sapiens, UniProt P21462)", "µM", "=", 11.5),
    ("Cc1ccc(C)c(C(=O)C2C(=O)C(=O)N(CCCn3ccnc3)C2c2ccncc2)c1 (centres undefined)", "fMet-Leu-Phe receptor (Homo sapiens, UniProt P21462)", "µM", ">", 66.7),
    ("COc1ccc(OC)c(C2C(C(=O)c3ccccc3)C(=O)C(=O)N2Cc2ccco2)c1 (centres undefined)", "fMet-Leu-Phe receptor (Homo sapiens, UniProt P21462)", "µM", "=", 3.4),
    ("COc1cc(C2C(C(=O)c3ccc(C)o3)C(=O)C(=O)N2Cc2cccnc2)ccc1O (centres undefined)", "fMet-Leu-Phe receptor (Homo sapiens, UniProt P21462)", "µM", ">", 66.7),
]

###

ASSAYED SYSTEM: fMet-Leu-Phe receptor (Homo sapiens)
Sequence (P21462 whole entry): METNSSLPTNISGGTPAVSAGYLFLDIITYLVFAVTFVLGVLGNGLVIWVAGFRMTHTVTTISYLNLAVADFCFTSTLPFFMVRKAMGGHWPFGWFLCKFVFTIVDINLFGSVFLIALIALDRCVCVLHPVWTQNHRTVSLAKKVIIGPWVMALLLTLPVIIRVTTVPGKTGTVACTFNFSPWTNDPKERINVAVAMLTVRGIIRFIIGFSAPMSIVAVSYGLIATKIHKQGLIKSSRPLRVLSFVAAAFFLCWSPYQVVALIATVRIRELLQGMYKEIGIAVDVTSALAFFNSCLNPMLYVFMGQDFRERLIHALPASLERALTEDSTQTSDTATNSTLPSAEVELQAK
We begin with a simple list: items and their reported IC50.
ASSAY METRIC: IC50 (µM)

# COMPOUND, ENDPOINT UNIT, MODIFIER, RECORDED VALUE
data = [
    ("CCOc1cccc(C(=O)C2C(=O)C(=O)N(CCOC)C2c2ccc(C)o2)c1 (stereo unspecified)", "µM", "=", 13.5),
    ("COc1cc(C2C(C(=O)c3ccc4c(c3)CC(C)O4)C(=O)C(=O)N2CCCn2ccnc2)ccc1O (stereo unspecified)", "µM", "=", 57.5),
    ("O=C1C(=O)N(c2ncccn2)C(c2ccc(Cl)c(Cl)c2)C1C(=O)c1ccco1 (stereo unspecified)", "µM", ">", 66.7),
    ("CCOc1cccc(C(=O)C2C(=O)C(=O)N(Cc3ccco3)C2c2ccncc2)c1 (stereo unspecified)", "µM", ">", 66.7),
    ("Cc1nc2c(C)cccn2c1C(=O)C1C(=O)C(=O)N(CCN2CCOCC2)C1c1cccs1 (stereo unspecified)", "µM", ">", 66.7),
    ("COCCN1C(=O)C(=O)C(C(=O)c2cccs2)C1c1ccccc1 (stereo unspecified)", "µM", ">", 66.7),
    ("COC(=O)c1[nH]c(C)c(C(=O)C2C(=O)C(=O)N(CCN3CCOCC3)C2c2cccs2)c1C (stereo unspecified)", "µM", "=", 5),
    ("COc1ccc(OC)c(C2C(C(=O)c3cc4ccccc4o3)C(=O)C(=O)N2c2cc(C)on2)c1 (stereo unspecified)", "µM", "=", 36.6),
    ("CCOc1ccc(C2C(C(=O)c3cccs3)C(=O)C(=O)N2CCCn2ccnc2)cc1 (stereo unspecified)", "µM", "=", 57.1),
    ("Cc1ccc(C(=O)C2C(=O)C(=O)N(CC(C)O)C2c2ccc(N(C)C)cc2)cc1 (stereo unspecified)", "µM", ">", 66.7),
    ("COCCCN1C(=O)C(=O)C(C(=O)c2ccccc2)C1c1ccc2c(c1)OCO2 (stereo unspecified)", "µM", "=", 29.6),
    ("COc1ccccc1C1C(C(=O)c2ccccc2)C(=O)C(=O)N1CCO (stereo unspecified)", "µM", "=", 19.7),
    ("COC(=O)Cc1n[nH]c2c1C(C1C=CCCC1)C(C#N)C(=N)O2 (stereo unspecified)", "µM", ">", 66.7),
    ("Cc1ccsc1C1C2C(=O)CC(C)(C)CC2=Nc2ncnn21 (stereo unspecified)", "µM", "=", 12.5),
    ("O=C1Nc2ccccc2/C1=C1/SC(=S)N(CC2CCCO2)C1=O (stereo unspecified)", "µM", ">", 66.7),
    ("COc1ccc(C(=O)C2C(=O)C(=O)N(Cc3ccco3)C2c2ccc(OC)cc2OC)cc1 (stereo unspecified)", "µM", ">", 66.7),
    ("CC1=C(C(=O)OC(C)C)[C@]2(C(=O)N(CC(N)=O)c3ccccc32)C(C#N)C(=N)O1 (stereo partly specified)", "µM", ">", 66.7),
    ("C=CCOc1ccc(C2C(C(=O)c3cccs3)C(=O)C(=O)N2c2nnc(C)s2)cc1 (stereo unspecified)", "µM", "=", 40.5),
    ("O=C1CCCC(=O)C1C(C#Cc1ccccc1)C1C(=O)CCCC1=O", "µM", ">", 66.7),
    ("COc1cccc(C2C(C(=O)c3cc4ccccc4o3)C(=O)C(=O)N2c2cc(C)on2)c1OC (stereo unspecified)", "µM", ">", 66.7),
    ("O=C1C(=O)N(Cc2ccccc2)C(c2cccnc2)C1C(=O)c1ccco1 (stereo unspecified)", "µM", "=", 30.5),
    ("COc1ccc(C2C(C(=O)c3ccco3)C(=O)C(=O)N2CCc2ccccc2)cc1OC (stereo unspecified)", "µM", "=", 36.9),
    ("O=C1C(=O)N(CC2CCCO2)C(c2cccnc2)C1C(=O)c1ccco1 (stereo unspecified)", "µM", "=", 54.8),
    ("CC1=NC(C)=C(C#N)C(c2ccc3ncccc3c2)C1C#N (stereo unspecified)", "µM", ">", 66.7),
    ("Cc1ccc(C(=O)C2C(=O)C(=O)N(Cc3ccccc3)C2c2cccnc2)o1 (stereo unspecified)", "µM", ">", 66.7),
    ("COc1cccc(C(=O)C2C(=O)C(=O)N(Cc3cccnc3)C2c2ccco2)c1 (stereo unspecified)", "µM", ">", 66.7),
    ("CCN(CC)c1ccc(C=NC(C#N)C(=N)C#N)cc1 (stereo unspecified)", "µM", ">", 66.7),
    ("COc1cc(-n2nc(C)c3c2OC(=N)C(C#N)C3c2ccccc2)c(Cl)c(Br)c1O (stereo unspecified)", "µM", "=", 32.5),
    ("O=C1C(=O)N(CCOCCO)C(c2cccs2)C1C(=O)c1cccs1 (stereo unspecified)", "µM", "=", 21.4),
    ("C=CCOc1ccc(C2C(C(=O)c3ccco3)C(=O)C(=O)N2Cc2cccnc2)cc1 (stereo unspecified)", "µM", "=", 9.7),
    ("Cc1ccc(C2C(C(=O)c3ccc(Br)cc3)C(=O)C(=O)N2Cc2ccco2)o1 (stereo unspecified)", "µM", ">", 66.7),
]
